measured_target: C-C chemokine receptor type 6 (Homo sapiens)
measurement_notes: potency against CXCR6 with APJ panel – cell-based, beta-arrestin, DiscoveRx, uHTS hits, dose response (AID 624129)
reported_conditions: CXCR6 beta-arrestin (DiscoveRx) antagonist cell assay, CCR6, dose range 1, mean IC50 across replicates
Would you mind telling me the reported pIC50 of each entry?
Answers are plain numbers, as −log10 of the molar value.

>>> value_measured("Cc1ccc(/C=N/NC(=S)N2CCOCC2)cc1")
5.37
>>> value_measured("COc1cc2c(cc1OC)C1(CCCC1)CNC2c1cccc([N+](=O)[O-])c1 (stereo not drawn)")
4.91
>>> value_measured("CC(Oc1ccc(F)cc1)C(=O)Nc1nc(-c2ccccn2)cs1 (stereo not drawn)")
5.06
>>> value_measured("O=C1N[C@H](Cc2ccccc2)COC(=O)[C@H](Cc2ccc(F)cc2)CC/C=C/C[C@H]1CC(=O)N(CCO)Cc1ccccc1")
5.15
>>> value_measured("Cc1ccc2c(c1)C1CN(C)CCC1N2C(=S)NC(=O)c1ccc(Br)cc1 (stereo not drawn)")
4.85
>>> value_measured("CCS(=O)(=O)c1ncc(Cl)c(C(=O)Nc2ccc(S(=O)(=O)N3CCCC(C)C3)cc2)n1 (stereo not drawn)")
5.15

I would be grateful if you could provide pIC50 for each of the following entries.
1. CCS(=O)(=O)c1ncc(Cl)c(C(=O)Nc2ccc(S(=O)(=O)N(C)c3ccccc3)cc2)n1
2. COc1ccc(-c2csc(Cc3nc(O)cs3)n2)cc1
3. O=[N+]([O-])c1c(Nc2ccc(O)cc2)cc(Cl)c2nonc12
4. CC(=O)OCCCNc1cc(Sc2nc3ccccc3s2)c2nonc2c1[N+](=O)[O-]
5. CC(C)(C)c1ccc(-n2nc(C#N)c(Cl)cc2=O)cc1
6. Cc1ccc(-c2oc3ccccc3c(=O)c2O)cc1
7. Nc1cc(Cl)c2nonc2c1[N+](=O)[O-]
8. O=C(NNC(=O)C12CC3CC(CC(C3)C1)C2)c1ccccn1

Key:
1: 5.32; 2: 5.46; 3: 5.76; 4: 4.52; 5: 5.26; 6: 5.04; 7: 5.14; 8: 5.07

Quick one: give me pIC50 for each item below, same order please.
1. Cc1ccsc1/C=C/c1ccc2cccc(O)c2n1
2. CCOc1ccc(NCC(=O)c2ccc(C)cc2)cc1

Key:
5.19
4.79

Provide reported pIC50 for each item, in the same order as listed.
1. CCCCCCN1C=C/C(=C\C=C(C#N)C#N)c2ccccc21
2. COc1cc(/C=C/c2ccc3c(Br)cc(Br)c(O)c3n2)ccc1O
3. COc1cc(/C=C/c2ccc3cccc(O)c3n2)cc(OC)c1OC
4. O=[N+]([O-])c1c(Nc2ccccc2O)cc(Cl)c2nonc12
5. Cc1ccc(S(=O)(=O)c2ccc([N+](=O)[O-])o2)cc1

Key:
1. 4.70
2. 4.92
3. 5.39
4. 4.90
5. 5.08

Go through the items and report each one's pIC50.
1. CN(c1ccccc1)S(=O)(=O)c1ccc(NC(=O)c2nc(S(C)(=O)=O)ncc2Cl)cc1
2. COc1ccc(C(=O)N/N=C(\C)c2ccccn2)cc1OC
3. CC(C)(C)C(=O)NC(=S)NNC(=O)c1sc2ccccc2c1Cl

Key:
[5.24, 5.62, 4.47]

The reported numbers originate from PubChem BioAssay AID624129.
